Hi there, I'd appreciate the recorded IC50 for every entry that follows.
- tgt: PRMT5/MEP50 (Homo sapiens)
- Sequence (O14744 with tags, fused parts or gaps): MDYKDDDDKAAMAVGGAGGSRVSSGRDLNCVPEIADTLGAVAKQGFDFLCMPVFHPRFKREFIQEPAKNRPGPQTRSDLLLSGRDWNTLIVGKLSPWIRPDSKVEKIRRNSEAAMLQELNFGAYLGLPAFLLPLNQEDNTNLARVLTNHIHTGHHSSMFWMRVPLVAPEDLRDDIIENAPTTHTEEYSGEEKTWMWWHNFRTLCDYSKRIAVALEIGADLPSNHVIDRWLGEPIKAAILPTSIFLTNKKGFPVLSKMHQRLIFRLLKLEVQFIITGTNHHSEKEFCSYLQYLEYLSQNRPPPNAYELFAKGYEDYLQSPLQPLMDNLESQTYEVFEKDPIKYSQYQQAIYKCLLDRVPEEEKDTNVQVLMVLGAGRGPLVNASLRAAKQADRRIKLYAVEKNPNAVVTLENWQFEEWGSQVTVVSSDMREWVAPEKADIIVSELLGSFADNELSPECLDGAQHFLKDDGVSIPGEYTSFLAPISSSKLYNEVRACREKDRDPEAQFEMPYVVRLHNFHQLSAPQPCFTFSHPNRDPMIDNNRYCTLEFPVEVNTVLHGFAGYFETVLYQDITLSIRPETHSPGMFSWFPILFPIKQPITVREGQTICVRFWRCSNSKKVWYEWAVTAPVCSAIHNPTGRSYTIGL
- Sequence (Q9BQA1 with tags, fused parts or gaps partner limits assumed): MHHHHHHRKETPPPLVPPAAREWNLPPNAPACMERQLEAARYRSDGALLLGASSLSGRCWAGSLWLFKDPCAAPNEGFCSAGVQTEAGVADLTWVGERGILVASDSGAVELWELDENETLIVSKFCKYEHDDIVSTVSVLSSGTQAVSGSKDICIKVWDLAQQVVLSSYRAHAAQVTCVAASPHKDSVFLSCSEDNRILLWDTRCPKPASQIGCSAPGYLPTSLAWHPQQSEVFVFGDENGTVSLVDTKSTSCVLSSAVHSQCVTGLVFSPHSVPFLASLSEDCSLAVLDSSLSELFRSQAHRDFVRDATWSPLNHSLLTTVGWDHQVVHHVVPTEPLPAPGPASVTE
- experimentSummary: PRMT5 Biochemical Assay (PRMT5/MEP50 enzyme assay on peptide substrate, 3H-SAM Flashplate)
- conditionNotes: PRMT5/MEP50 4 nM, 3H-SAM 75 nM, peptide 40 nM, 30 min preincubation at 25 degrees Celsius

Using the record for O=C(NC1CCOCC1)c1cc(=O)n(CC(O)CN2CCc3ccccc3C2)cn1 (centres unmarked) [Compound 34] , report its IC50.
1 to 10 µM

Note: attention shifts to another entry.
Using the record for O=C(NC1CCOCC1)c1ccn(CC(O)CN2CCc3ccccc3C2)c(=O)c1 (centres unmarked) [Compound 33] , report its IC50.
0.101 to 1 µM
